Ki for assorted binders
Target: hMC3-R (human, UniProt P41968)
Sequence (P41968 whole entry): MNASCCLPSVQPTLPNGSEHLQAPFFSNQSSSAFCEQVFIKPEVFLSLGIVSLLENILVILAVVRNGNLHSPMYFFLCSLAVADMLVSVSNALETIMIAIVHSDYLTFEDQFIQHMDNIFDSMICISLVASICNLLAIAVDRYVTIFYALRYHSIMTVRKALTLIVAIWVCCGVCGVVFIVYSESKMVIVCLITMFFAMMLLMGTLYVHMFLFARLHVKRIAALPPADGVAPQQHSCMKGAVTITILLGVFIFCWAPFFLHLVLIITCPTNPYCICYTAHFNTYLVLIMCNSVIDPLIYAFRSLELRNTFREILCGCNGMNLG
Assay: competition
Bridges are numbered along the chain shown (N, C = ends). Where no end group is shown, it is not given here. [ ]: non-standard residue; d: D form. Bip = N[C@@H](Cc1ccc(-c2ccccc2)cc1)C(=O)O; 2Nal = N[C@@H](Cc1ccc2ccccc2c1)C(=O)O; 3Pal = N[C@@H](Cc1cccnc1)C(=O)O; Nle = CCCC[C@H](N)C(=O)O; Bal = not defined here; GABA = NCCCC(=O)O; βAla = NCCC(=O)O

Before answering, review these 3 worked examples.
{"Binder": "Ac-[Nle]D[dA]H[dF]R[Bal]K-NH2 (lactam 2-8; reading uncertain) [Ac-Nle-c(Asp-D-Ala-His-D-Phe-Arg-Bal-Lys)-NH2]", "Ki": "445 nM"}
{"Binder": "Ac-[Nle]C[3Pal][dF]RW[GABA]C-NH2 (disulfide 2-8) [Ac-Nle-c(Cys-3-Pal-D-Phe-Arg-Trp-Gaba-Cys)-NH2]", "Ki": "151 nM"}
{"Binder": "[dF]CH[dF]R[Bip][βAla][dC]T-NH2 (disulfide 2-8 (inferred)) [D-Phe-c(Cys-His-D-Phe-Arg-Bip-β-Ala-D-Cys)-Thr-NH2]", "Ki": "3370 nM"}

Let's switch to this binder now.
Fill blank: measured Ki of the binder Ac-C[dA]H[dF]R[2Nal]AC-NH2 (disulfide 1-8 (inferred)) [Ac-c(Cys-D-Ala-His-D-Phe-Arg-2-Nal-Ala-Cys)-NH2] is ____. 4560 nM
